B1: library; numbered along this chain (parent)
chain: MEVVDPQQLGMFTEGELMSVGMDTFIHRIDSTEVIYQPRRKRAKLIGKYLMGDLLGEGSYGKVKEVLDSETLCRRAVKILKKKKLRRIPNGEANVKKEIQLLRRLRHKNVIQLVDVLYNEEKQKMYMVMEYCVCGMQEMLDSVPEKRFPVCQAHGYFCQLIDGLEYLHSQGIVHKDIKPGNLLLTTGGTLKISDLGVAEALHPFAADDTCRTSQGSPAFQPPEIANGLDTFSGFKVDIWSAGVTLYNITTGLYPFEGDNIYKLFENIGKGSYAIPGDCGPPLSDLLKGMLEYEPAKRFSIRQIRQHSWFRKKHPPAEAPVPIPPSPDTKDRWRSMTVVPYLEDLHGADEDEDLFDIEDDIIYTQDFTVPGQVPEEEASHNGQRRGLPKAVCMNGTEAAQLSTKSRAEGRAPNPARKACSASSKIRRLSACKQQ

Variants of: B1
assay-summary: STK11 functional score (HeLa growth suppression), rescaled enrichment; synonymous median = 1, nonsense median = 0 (normalised score)
condition-summary: with HeLa; variant type: missense
observation-type: STK11 functional score
Give the value as a plain number.

Recall and state the measured STK11 functional score for N247A .
1.37

Recall and state the measured STK11 functional score for F366Y .
1.24

Recall and state the measured STK11 functional score for K423N .
1.52

Recall and state the measured STK11 functional score for L101I .
1.06

Recall and state the measured STK11 functional score for T212Y .
1.38

Recall and state the measured STK11 functional score for I303Q .
1.56

Recall and state the measured STK11 functional score for S193L .
0.696

Recall and state the measured STK11 functional score for E165Q .
0.995

Recall and state the measured STK11 functional score for R39T .
0.548

Recall and state the measured STK11 functional score for K83A .
1.58

Recall and state the measured STK11 functional score for L182W .
0.0906

Recall and state the measured STK11 functional score for E407C .
1.21

Recall and state the measured STK11 functional score for G385E .
1.41

Recall and state the measured STK11 functional score for E223L .
0.529

Recall and state the measured STK11 functional score for A406W .
1.46

Recall and state the measured STK11 functional score for P222E .
0.0466

Recall and state the measured STK11 functional score for L201C .
1.12

Recall and state the measured STK11 functional score for F264A .
1.16

Recall and state the measured STK11 functional score for E120S .
1.42

Recall and state the measured STK11 functional score for L201T .
1.2

Recall and state the measured STK11 functional score for C210V .
1

Recall and state the measured STK11 functional score for G215R .
0.426

Recall and state the measured STK11 functional score for D348Y .
0.868

Recall and state the measured STK11 functional score for E317V .
1.36

Recall and state the measured STK11 functional score for P413K .
1.55

Recall and state the measured STK11 functional score for I274R .
0.816

Recall and state the measured STK11 functional score for Q305G .
1.52

Recall and state the measured STK11 functional score for G135S .
1.65

Recall and state the measured STK11 functional score for S419E .
1.24

Recall and state the measured STK11 functional score for P89C .
1.29

Recall and state the measured STK11 functional score for V114P .
0.872

Recall and state the measured STK11 functional score for H306Y .
0.195

Recall and state the measured STK11 functional score for K41F .
1.14

Recall and state the measured STK11 functional score for R425T .
1.52

Recall and state the measured STK11 functional score for S325M .
0.0951

Recall and state the measured STK11 functional score for G257L .
0.765

Recall and state the measured STK11 functional score for L45K .
1.53

Recall and state the measured STK11 functional score for G227L .
0.694

Recall and state the measured STK11 functional score for D350F .
0.0925

Recall and state the measured STK11 functional score for K83S .
1.7

Recall and state the measured STK11 functional score for E98L .
0.433

Recall and state the measured STK11 functional score for R74V .
0.653

Recall and state the measured STK11 functional score for M129S .
0.731

Recall and state the measured STK11 functional score for L105V .
0.842

Recall and state the measured STK11 functional score for A206W .
0.035

Recall and state the measured STK11 functional score for D343N .
1.02

Recall and state the measured STK11 functional score for M22P .
1.54

Recall and state the measured STK11 functional score for H174L .
0.234

Recall and state the measured STK11 functional score for L290I .
1.06

Recall and state the measured STK11 functional score for P315I .
1.21

Recall and state the measured STK11 functional score for A347L .
1.46

Recall and state the measured STK11 functional score for M129C .
1.26

Recall and state the measured STK11 functional score for S240I .
0.369

Recall and state the measured STK11 functional score for E130K .
1.36

Recall and state the measured STK11 functional score for L427F .
1.31

Recall and state the measured STK11 functional score for E293F .
1.07

Recall and state the measured STK11 functional score for A200Y .
1.29

Recall and state the measured STK11 functional score for P221I .
0.337

Recall and state the measured STK11 functional score for F264W .
0.216

Recall and state the measured STK11 functional score for E396L .
1.14

Recall and state the measured STK11 functional score for D350M .
1.65

Recall and state the measured STK11 functional score for T249I .
0.664

Recall and state the measured STK11 functional score for K269V .
1.22

Recall and state the measured STK11 functional score for K269Q .
1.5

Recall and state the measured STK11 functional score for P321N .
1.03

Recall and state the measured STK11 functional score for T185D .
0.415

Recall and state the measured STK11 functional score for G215Q .
0.0889

Recall and state the measured STK11 functional score for H27M .
1.63

Recall and state the measured STK11 functional score for G58L .
-0.188

Recall and state the measured STK11 functional score for F25I .
1.69

Recall and state the measured STK11 functional score for E70Q .
0.703

Recall and state the measured STK11 functional score for I361N .
1.27

Recall and state the measured STK11 functional score for E342T .
1.58

Recall and state the measured STK11 functional score for M11K .
1.32

Recall and state the measured STK11 functional score for L167P .
0.104

Recall and state the measured STK11 functional score for E121I .
1.42

Recall and state the measured STK11 functional score for S428E .
1.63

Recall and state the measured STK11 functional score for L102A .
0.777

Recall and state the measured STK11 functional score for T402C .
1.33

Recall and state the measured STK11 functional score for S69P .
1.04

Recall and state the measured STK11 functional score for C210E .
0.0554

Recall and state the measured STK11 functional score for K311D .
1.32

Recall and state the measured STK11 functional score for A414D .
0.946

Recall and state the measured STK11 functional score for A347Y .
1.34

Recall and state the measured STK11 functional score for T250H .
1.65

Recall and state the measured STK11 functional score for M139Q .
1.11

Recall and state the measured STK11 functional score for A225R .
1.07

Recall and state the measured STK11 functional score for K78T .
0.086

Recall and state the measured STK11 functional score for C391E .
1.58

Recall and state the measured STK11 functional score for L55W .
0.491

Recall and state the measured STK11 functional score for V4W .
1.22
